tested on: 521955-158-R2-J5-PDC complex spheroid viability; assay: Anticancer human tumor 521955-158-R2-J5-PDC patient-derived pancreatic carcinoma cell line growth inhibition; details: second compound 0.1 µM; first compound 0.0316 µM; stronger effect = lower value

- molecule: "O=C(c1cc(Cc2n[nH]c(=O)c3ccccc23)ccc1F)N1CCN(C(=O)C2CC2)CC1 + NC1CCC(NC2CC2c2ccccc2)CC1"
  readout unit: "%"
  viability, T/C: 109
- molecule: "COc1cc(Nc2ncc3c(n2)-c2ccc(Cl)cc2C(c2c(F)cccc2OC)=NC3)ccc1C(=O)O + NC1CCC(NC2CC2c2ccccc2)CC1"
  readout unit: "%"
  viability, T/C: 45.8
- molecule: "CC1COCCN1c1cc(C2(S(C)(=N)=O)CC2)nc(-c2ccnc3[nH]ccc23)n1 (stereo not given) + NC1CC1c1ccc(-c2cccc(O)c2)cc1"
  readout unit: "%"
  viability, T/C: 82.3
- molecule: "CC(C)c1c(-c2ccccc2)nc2c(C#N)c[nH]n2c1=O + NC1CCC(NC2CC2c2ccccc2)CC1"
  readout unit: "%"
  viability, T/C: 87.4
- molecule: "COc1ccc([C@@H](O)c2cc(-c3ncnc4cc(N5CCOCC5)ccc34)c(F)cc2Cl)nn1 + NC1CCC(NC2CC2c2ccccc2)CC1"
  readout unit: "%"
  viability, T/C: 81.5
- molecule: "O=C(c1cc(Cc2n[nH]c(=O)c3ccccc23)ccc1F)N1CCN(C(=O)C2CC2)CC1 + NC1CC1c1ccc(-c2cccc(O)c2)cc1"
  readout unit: "%"
  viability, T/C: 80.9
- molecule: "Nc1ncn(C2CC(O)C(CO)O2)c(=O)n1 (stereo not given) + NC1CCC(NC2CC2c2ccccc2)CC1"
  readout unit: "%"
  viability, T/C: 93.6
- molecule: "O=C(C=Cn1cnc(-c2cc(C(F)(F)F)cc(C(F)(F)F)c2)n1)NNc1cnccn1 + NC1CC1c1ccc(-c2cccc(O)c2)cc1"
  readout unit: "%"
  viability, T/C: 85.6
- molecule: "CC1COCCN1c1cc(-c2ccnn2C)c2ccnc(-c3ccn[nH]3)c2n1 (stereo not given) + NC1CC1c1ccc(-c2cccc(O)c2)cc1"
  readout unit: "%"
  viability, T/C: 17.3
- molecule: "O=C(C=Cn1cnc(-c2cc(C(F)(F)F)cc(C(F)(F)F)c2)n1)NNc1cnccn1 + NC1CCC(NC2CC2c2ccccc2)CC1"
  readout unit: "%"
  viability, T/C: 45.4
- molecule: "CC(C)CC(NC(=O)C(Cc1ccccc1)NC(=O)c1cnccn1)B(O)O (stereo not given) + NC1CCC(NC2CC2c2ccccc2)CC1"
  readout unit: "%"
  viability, T/C: 0.05
- molecule: "CC(C)c1c(-c2ccccc2)nc2c(C#N)c[nH]n2c1=O + NC1CC1c1ccc(-c2cccc(O)c2)cc1"
  readout unit: "%"
  viability, T/C: 48.6
- molecule: "CC1(C)CCC(CN2CCN(c3ccc(C(=O)NS(=O)(=O)c4ccc(NCC5CCOCC5)c([N+](=O)[O-])c4)c(Oc4cnc5[nH]ccc5c4)c3)CC2)=C(c2ccc(Cl)cc2)C1 + NC1CC1c1ccc(-c2cccc(O)c2)cc1"
  readout unit: "%"
  viability, T/C: 93.2
- molecule: "CC1COCCN1c1cc(C2(S(C)(=N)=O)CC2)nc(-c2ccnc3[nH]ccc23)n1 (stereo not given) + NC1CCC(NC2CC2c2ccccc2)CC1"
  readout unit: "%"
  viability, T/C: 104
- molecule: "Cn1ncnc1C1c2n[nH]c(=O)c3cc(F)cc(c23)NC1c1ccc(F)cc1 (stereo not given) + NC1CCC(NC2CC2c2ccccc2)CC1"
  readout unit: "%"
  viability, T/C: 83

----------
system: 521955-158-R2-J5-PDC complex spheroid viability; assay: Anticancer human tumor 521955-158-R2-J5-PDC cell line growth inhibition; conditions: second compound 0.1 µM; first compound 0.0316 µM; stronger effect = lower value;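 further: spheroids exposed to agents for seven days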;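 on viability, T/C: percent of DMSO vehicle control luminescence viability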
Consider the following compounds and their measured viability, T/C readings.
parameter: viability, T/C

- compound: "Nc1ncn(C2CC(O)C(CO)O2)c(=O)n1 (centres undefined) + NC1CC1c1ccc(-c2cccc(O)c2)cc1"
  reported measurement: "83.7%"
- compound: "CC(C)CC(NC(=O)CNC(=O)c1cc(Cl)ccc1Cl)B1OC(=O)CC(CC(=O)O)(C(=O)O)O1 (centres undefined) + NC1CC1c1ccc(-c2cccc(O)c2)cc1"
  reported measurement: "0.96%"
- compound: "CC(C)CC(NC(=O)CNC(=O)c1cc(Cl)ccc1Cl)B1OC(=O)CC(CC(=O)O)(C(=O)O)O1 (centres undefined) + NC1CCC(NC2CC2c2ccccc2)CC1"
  reported measurement: "0.37%"
- compound: "COc1ccc([C@@H](O)c2cc(-c3ncnc4cc(N5CCOCC5)ccc34)c(F)cc2Cl)nn1 + NC1CC1c1ccc(-c2cccc(O)c2)cc1"
  reported measurement: "72.7%"

----------
tested on: 521955-158-R2-J5-PDC complex spheroid viability; experiment: Anticancer human tumor 521955-158-R2-J5-PDC cell line growth inhibition; conditions: second compound 0.1 µM; first compound 0.001 µM; stronger effect = lower value;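 further: spheroids exposed to agents for seven days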;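 on viability, T/C: percent of DMSO vehicle control luminescence viability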

- molecule: "CC(C)CC(NC(=O)C(Cc1ccccc1)NC(=O)c1cnccn1)B(O)O (centres undefined) + NC1CC1c1ccc(-c2cccc(O)c2)cc1"
  viability, T/C / %: 0.66
- molecule: "CC[C@@]1(O)C(=O)OCc2c1cc1n(c2=O)Cc2cc3c(CN(C)C)c(O)ccc3nc2-1 + NC1CCC(NC2CC2c2ccccc2)CC1"
  viability, T/C / %: 104
- molecule: "CC[C@@]1(O)C(=O)OCc2c1cc1n(c2=O)Cc2cc3c(CN(C)C)c(O)ccc3nc2-1 + NC1CC1c1ccc(-c2cccc(O)c2)cc1"
  viability, T/C / %: 106
- molecule: "CC(C)CC(NC(=O)CNC(=O)c1cc(Cl)ccc1Cl)B1OC(=O)CC(CC(=O)O)(C(=O)O)O1 (centres undefined) + NC1CCC(NC2CC2c2ccccc2)CC1"
  viability, T/C / %: 111

----------
tested on: 521955-158-R2-J5-PDC complex spheroid viability; experiment: Anticancer human tumor 521955-158-R2-J5-PDC cell line growth inhibition; conditions: second compound 0.316 µM; first compound 0.000316 µM; stronger effect = lower value;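 further: spheroids exposed to agents for seven days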;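 on viability, T/C: percent of DMSO vehicle control luminescence viability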
Form field: viability, T/C (one value per entry).

- compound: "CC(C)CC(NC(=O)C(Cc1ccccc1)NC(=O)c1cnccn1)B(O)O (stereo not drawn) + NC1CC1c1ccc(-c2cccc(O)c2)cc1"
  viability, T/C (%): 83.8
- compound: "CC[C@@]1(O)C(=O)OCc2c1cc1n(c2=O)Cc2cc3c(CN(C)C)c(O)ccc3nc2-1 + NC1CCC(NC2CC2c2ccccc2)CC1"
  viability, T/C (%): 101
- compound: "CC[C@@]1(O)C(=O)OCc2c1cc1n(c2=O)Cc2cc3c(CN(C)C)c(O)ccc3nc2-1 + NC1CC1c1ccc(-c2cccc(O)c2)cc1"
  viability, T/C (%): 94.8
- compound: "Cn1ncnc1C1c2n[nH]c(=O)c3cc(F)cc(c23)NC1c1ccc(F)cc1 (stereo not drawn) + NC1CCC(NC2CC2c2ccccc2)CC1"
  viability, T/C (%): 103
- compound: "CC(C)CC(NC(=O)CNC(=O)c1cc(Cl)ccc1Cl)B1OC(=O)CC(CC(=O)O)(C(=O)O)O1 (stereo not drawn) + NC1CC1c1ccc(-c2cccc(O)c2)cc1"
  viability, T/C (%): 73.4
- compound: "CC(C)CC(NC(=O)CNC(=O)c1cc(Cl)ccc1Cl)B1OC(=O)CC(CC(=O)O)(C(=O)O)O1 (stereo not drawn) + NC1CCC(NC2CC2c2ccccc2)CC1"
  viability, T/C (%): 99.8
- compound: "Cn1ncnc1C1c2n[nH]c(=O)c3cc(F)cc(c23)NC1c1ccc(F)cc1 (stereo not drawn) + NC1CC1c1ccc(-c2cccc(O)c2)cc1"
  viability, T/C (%): 91.5
- compound: "CC(C)CC(NC(=O)C(Cc1ccccc1)NC(=O)c1cnccn1)B(O)O (stereo not drawn) + NC1CCC(NC2CC2c2ccccc2)CC1"
  viability, T/C (%): 75.7

----------
test system: 521955-158-R2-J5-PDC complex spheroid viability; assay: Anticancer human tumor 521955-158-R2-J5-PDC cell line growth inhibition; conditions: curve of first compound; second compound 1 µM;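 further: spheroids exposed to agents for seven days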
pIC50: −log10 of the molar value.
Assign class by pIC50: not lower than 7 means 1.0; lower than 7 means 0.0.

- compound: "CC(C)CC(NC(=O)C(Cc1ccccc1)NC(=O)c1cnccn1)B(O)O (centres undefined) + NC1CCC(NC2CC2c2ccccc2)CC1"
  assayed system: "521955-158-R2-J5-PDC complex spheroid viability"
  category label: 1.0
- compound: "CC1(C)CCC(CN2CCN(c3ccc(C(=O)NS(=O)(=O)c4ccc(NCC5CCOCC5)c([N+](=O)[O-])c4)c(Oc4cnc5[nH]ccc5c4)c3)CC2)=C(c2ccc(Cl)cc2)C1 + NC1CC1c1ccc(-c2cccc(O)c2)cc1"
  assayed system: "521955-158-R2-J5-PDC complex spheroid viability"
  category label: 0.0
- compound: "COc1cc(C2c3cc4c(cc3C(OC3OC5COC(C)OC5C(O)C3O)C3COC(=O)C23)OCO4)cc(OC)c1O (centres undefined) + NC1CCC(NC2CC2c2ccccc2)CC1"
  assayed system: "521955-158-R2-J5-PDC complex spheroid viability"
  category label: 1.0
- compound: "Cn1ncnc1C1c2n[nH]c(=O)c3cc(F)cc(c23)NC1c1ccc(F)cc1 (centres undefined) + NC1CCC(NC2CC2c2ccccc2)CC1"
  assayed system: "521955-158-R2-J5-PDC complex spheroid viability"
  category label: 0.0
- compound: "O=C(C=Cn1cnc(-c2cc(C(F)(F)F)cc(C(F)(F)F)c2)n1)NNc1cnccn1 + NC1CCC(NC2CC2c2ccccc2)CC1"
  assayed system: "521955-158-R2-J5-PDC complex spheroid viability"
  category label: 1.0
- compound: "CCN(c1cc(-c2ccc(CN3CCOCC3)cc2)cc(C(=O)NCc2c(C)cc(C)[nH]c2=O)c1C)C1CCOCC1 + NC1CC1c1ccc(-c2cccc(O)c2)cc1"
  assayed system: "521955-158-R2-J5-PDC complex spheroid viability"
  category label: 0.0
- compound: "Nc1ncn(C2CC(O)C(CO)O2)c(=O)n1 (centres undefined) + NC1CCC(NC2CC2c2ccccc2)CC1"
  assayed system: "521955-158-R2-J5-PDC complex spheroid viability"
  category label: 0.0
- compound: "O=C(c1cc(Cc2n[nH]c(=O)c3ccccc23)ccc1F)N1CCN(C(=O)C2CC2)CC1 + NC1CCC(NC2CC2c2ccccc2)CC1"
  assayed system: "521955-158-R2-J5-PDC complex spheroid viability"
  category label: 0.0
- compound: "CC(C)CC(NC(=O)CNC(=O)c1cc(Cl)ccc1Cl)B1OC(=O)CC(CC(=O)O)(C(=O)O)O1 (centres undefined) + NC1CCC(NC2CC2c2ccccc2)CC1"
  assayed system: "521955-158-R2-J5-PDC complex spheroid viability"
  category label: 1.0
- compound: "CC[C@@]1(O)C(=O)OCc2c1cc1n(c2=O)Cc2cc3c(CN(C)C)c(O)ccc3nc2-1 + NC1CCC(NC2CC2c2ccccc2)CC1"
  assayed system: "521955-158-R2-J5-PDC complex spheroid viability"
  category label: 1.0
- compound: "COc1cc(C2c3cc4c(cc3C(OC3OC5COC(C)OC5C(O)C3O)C3COC(=O)C23)OCO4)cc(OC)c1O (centres undefined) + NC1CC1c1ccc(-c2cccc(O)c2)cc1"
  assayed system: "521955-158-R2-J5-PDC complex spheroid viability"
  category label: 0.0
- compound: "CC1COCCN1c1cc(C2(S(C)(=N)=O)CC2)nc(-c2ccnc3[nH]ccc23)n1 (centres undefined) + NC1CCC(NC2CC2c2ccccc2)CC1"
  assayed system: "521955-158-R2-J5-PDC complex spheroid viability"
  category label: 0.0
- compound: "COc1ccc([C@@H](O)c2cc(-c3ncnc4cc(N5CCOCC5)ccc34)c(F)cc2Cl)nn1 + NC1CC1c1ccc(-c2cccc(O)c2)cc1"
  assayed system: "521955-158-R2-J5-PDC complex spheroid viability"
  category label: 0.0
- compound: "Nc1ccn(C2OC(CO)C(O)C2(F)F)c(=O)n1 (centres undefined) + NC1CCC(NC2CC2c2ccccc2)CC1"
  assayed system: "521955-158-R2-J5-PDC complex spheroid viability"
  category label: 1.0
